Define the label as TRUE when logP is strictly less than 4 and as FALSE in all remaining cases.

Before answering, review these 9 worked examples.
{"compound": "CC(C)CN1C(=O)CC2CCC(C)C3CCC4(C)OOC23C1O4 (stereo not given)", "assigned_category": "TRUE"}
{"compound": "CCCN1C(=O)CC2CCC(C)C3CCC4(C)OOC23C1O4 (stereo not given)", "assigned_category": "TRUE"}
{"compound": "CC1CCC2CC(=O)N(Cc3ccc(Cl)cc3)C3OC4(C)CCC1C23OO4 (stereo not given)", "assigned_category": "FALSE"}
{"compound": "CCCCCN1C(=O)CC2CCC(C)C3CCC4(C)OOC23C1O4 (stereo not given)", "assigned_category": "FALSE"}
{"compound": "C[C@@H]1CC[C@H]2[C@@H](C)C(=O)O[C@@H]3O[C@@]4(C)CC[C@@H]1[C@]32OO4", "assigned_category": "TRUE"}
{"compound": "CC1CCC2CC(=O)N(CCCc3ccccc3)C3OC4(C)CCC1C23OO4 (stereo not given)", "assigned_category": "FALSE"}
{"compound": "CO[C@H]1O[C@@H]2O[C@@]3(C)CC[C@H]4[C@H](C)CC[C@@H]([C@H]1C)[C@@]24OO3", "assigned_category": "TRUE"}
{"compound": "CC1CCC2CC(=O)N(C)C3OC4(C)CCC1C23OO4 (stereo not given)", "assigned_category": "TRUE"}
{"compound": "CC1CCC2CC(=O)N(CC(=O)O)C3OC4(C)CCC1C23OO4 (stereo not given)", "assigned_category": "TRUE"}

Exam item: Item CC(C)CCN1C(=O)CC2CCC(C)C3CCC4(C)OOC23C1O4 (stereo not given) : logP beneath 4, strictly?
Marked response: FALSE

All values here come from the OPERA property sets (Mansouri et al. 2018).
